systemUnderTest: FGF2 (Homo sapiens, UniProt P09038 P09038:135-288)
Sequence (P09038 135-288, one chain of several): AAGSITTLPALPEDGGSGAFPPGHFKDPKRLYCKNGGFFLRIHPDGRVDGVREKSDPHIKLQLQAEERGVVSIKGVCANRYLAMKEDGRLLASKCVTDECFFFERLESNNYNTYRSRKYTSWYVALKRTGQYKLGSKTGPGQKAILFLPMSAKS
methodDescription: cell_activity; HUVEC proliferation, FGF2 0.58 nM
conditionDescription: tags: Peprotech
parameterMeasured: log10(IC50) (log10 of the value in nM)
Answers are given as log10 of IC50 in nM.

In: Value lookup for log10(IC50); key = GGGAUACUAGGGCAUUAAUGUUACCAGUGUAGUCCC (ssRNA, 2'-F at U8,G12,U16,U21,U28,U30; 2'-OH at G27,G29; all others 2'-OMe) [aptamer ID 3(25)]
Out: 0.71

In: Now give it for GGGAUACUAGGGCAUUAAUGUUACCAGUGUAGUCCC (ssRNA, 2'-F at U8,U16,U21,U28,U30; 2'-OH at G12,G27,G29; all others 2'-OMe; PS between G12 and C13) [aptamer ID 3(29)] too.
Out: 0.49

In: Now give it for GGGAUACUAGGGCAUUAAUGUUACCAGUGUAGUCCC (ssRNA, all C and U 2'-F; 2'-OMe at G1,G2,G3,A4,A9,G10,G11,A14,A17,A18,G20,A23,A26; other purines 2'-OH; 3' idT) [aptamer ID 3(8)] too.
Out: 1.43

In: Now give it for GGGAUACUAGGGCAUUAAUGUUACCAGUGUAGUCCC (ssRNA, 2'-F at U8,U16,U21,U28,U30; 2'-OH at G12,G27,G29; all others 2'-OMe; PS between G29 and U30) [aptamer ID 3(33)] too.
Out: 0.60

In: Now give it for GGGGAUACUAGGGCAUUAAUGUUACCAGUGUAGUCCCC (ssRNA, 2'-F at U9,U17,U22,U29,U31; 2'-OH at G13,G28,G30; all others 2'-OMe; 3' idT) [aptamer ID 5] too.
Out: 0.41

In: Now give it for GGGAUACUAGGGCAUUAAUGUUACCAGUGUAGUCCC (ssRNA, 2'-F at U8,U16,U21,U28,U30; 2'-OH at G12,G27,G29; all others 2'-OMe) [aptamer ID 3(18)] too.
Out: 0.41

In: Now give it for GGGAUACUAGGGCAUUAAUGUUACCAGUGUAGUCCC (ssRNA, 2'-OMe at G1,G2,G3,A4,C7,A9,G10,G11,A14,A17,A18,G20,A23,A26; other C and U 2'-F; other purines 2'-OH) [aptamer ID 3(16)] too.
Out: 0.90

In: Now give it for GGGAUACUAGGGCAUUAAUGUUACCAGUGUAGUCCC (ssRNA, 2'-OMe at G1,G2,G3,A4,A9,G10,G11,A14,A17,A18,G20,U22,A23,A26; other C and U 2'-F; other purines 2'-OH) [aptamer ID 3(14)] too.
Out: 1.08

Where do these numbers come from? They come from patent US20170157165.
